In this section, each of the compounds is paired with its reported MC1R/MC4R cAMP EC50 ratio.
Molecular target: human MC4R (Homo sapiens, UniProt P32245)
Construct: expressed in transfected cells
Sequence (P32245 whole entry): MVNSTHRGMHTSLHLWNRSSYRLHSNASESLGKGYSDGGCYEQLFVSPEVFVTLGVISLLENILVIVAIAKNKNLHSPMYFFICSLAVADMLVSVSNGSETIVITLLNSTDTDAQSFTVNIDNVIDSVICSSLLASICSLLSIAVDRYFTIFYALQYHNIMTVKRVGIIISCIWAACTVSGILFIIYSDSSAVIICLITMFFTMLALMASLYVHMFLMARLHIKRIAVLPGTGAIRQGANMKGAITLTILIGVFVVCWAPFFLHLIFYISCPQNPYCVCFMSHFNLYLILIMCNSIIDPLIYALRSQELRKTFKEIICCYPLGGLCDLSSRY
Assay: Functional cAMP assay (CisBio HTRF) in BHK cells expressing human MC4R
Assay type: cell-based
Details: MC1R cAMP EC50 divided by MC4R cAMP EC50
Positions of bridges follow the written chain, without caps; N, C: chain ends. Non-standard residues stand in square brackets, D forms with d. Residues, ends and D or L forms follow the SMILES beside them. Orn = NCCC[C@H](N)C(=O)O; Thz = O=C(O)[C@@H]1CSCN1
Answer as a number with no unit attached.

>>> readout_number("C[C@@H]1NC(=O)[C@H](C)NC(=O)[C@H](CCCN)NC(=O)[C@H](CCCCN)NC(=O)[C@@H]2CSSC[C@H](NC(=O)[C@H](Cc3c[nH]c4ccccc34)NC1=O)C(=O)N1CSC[C@H]1C(=O)N[C@@H](Cc1c[nH]cn1)C(=O)N[C@H](Cc1ccccc1)C(=O)N[C@@H](Cc1c[nH]cn1)C(=O)N[C@@H](Cc1c[nH]c3ccccc13)C(=O)N2 [Chem. 115] (cyclo(AAWC[Thz]H[dF]HWCK[Orn]); disulfide 4-10)")
1340

Please turn your attention to the following entry.
Exam item: Return value of MC1R/MC4R cAMP EC50 ratio for input C[C@@H]1NC(=O)[C@@H]2CSSC[C@H](NC(=O)[C@H](Cc3c[nH]c4ccccc34)NC(=O)[C@H](CCCNC(=N)N)NC(=O)[C@@H](Cc3ccccc3)NC(=O)[C@H](Cc3c[nH]cn3)NC1=O)C(=O)N[C@@H](C)C(=O)N[C@@H](Cc1ccc(O)cc1)C(=O)N[C@@H](Cc1ccccc1)C(=O)N[C@@H](CCCCN)C(=O)N[C@@H](Cc1c[nH]c3ccccc13)C(=O)N2 [Chem. 80] (cyclo(AH[dF]RWCAYFKWC); disulfide 6-12) , no commentary.
Marked response: 58

----------
Target: human MC4R (Homo sapiens)
Construct: expressed in transfected cells
Experiment: 125NDP-α-MSH competitive binding to membranes of BHK cells expressing human MC4 receptor (filtration assay)
Positions of bridges follow the written chain, without caps; N, C: chain ends. Non-standard residues stand in square brackets, D forms with d. Residues, ends and D or L forms follow the SMILES beside them. Api = NC1(C(=O)O)CCNCC1
endpoint.label: pKi
The meaning of pKi here: minus log10 of the concentration in molar units.

Reference set (2 entries):
>>> readout_number("N=C(N)NCCC[C@@H]1NC(=O)[C@@H](Cc2ccccc2)NC(=O)[C@H](Cc2c[nH]cn2)NC(=O)C2(CCNCC2)NC(=O)[C@@H]2CSSC[C@H](NC(=O)[C@H](Cc3c[nH]c4ccccc34)NC1=O)C(=O)NC1(CCNCC1)C(=O)N[C@@H](Cc1c[nH]cn1)C(=O)N[C@H](Cc1ccccc1)C(=O)N[C@@H](CCCNC(=N)N)C(=O)N[C@@H](Cc1c[nH]c3ccccc13)C(=O)N2 [Chem. 47] (cyclo([Api]H[dF]RWC[Api]H[dF]RWC); disulfide 6-12)")
9.14
>>> readout_number("C[C@@H]1NC(=O)[C@@H]2CSSC[C@H](NC(=O)[C@H](Cc3c[nH]c4ccccc34)NC(=O)[C@H](CCCNC(=N)N)NC(=O)[C@@H](Cc3ccccc3)NC(=O)[C@H](Cc3c[nH]cn3)NC1=O)C(=O)N[C@@H](CCCNC(=N)N)C(=O)N[C@@H](Cc1ccccc1)C(=O)N[C@@H](Cc1ccccc1)C(=O)N[C@@H](CC(N)=O)C(=O)N[C@@H](C)C(=O)N2 [Chem. 12] (cyclo(ACAH[dF]RWCRFFN); disulfide 2-8)")
9.55

Exam item: Please report the measured pKi for C[C@H]1NC(=O)[C@@H]2CSSC[C@H](NC(=O)[C@H](Cc3c[nH]c4ccccc34)NC(=O)[C@H](CCCNC(=N)N)NC(=O)[C@@H](Cc3ccccc3)NC(=O)[C@H](Cc3c[nH]cn3)NC1=O)C(=O)N[C@H](C)C(=O)N[C@@H](Cc1c[nH]cn1)C(=O)N[C@H](Cc1ccccc1)C(=O)N[C@@H](CCCNC(=N)N)C(=O)N[C@@H](Cc1c[nH]c3ccccc13)C(=O)N2 [Chem. 10] tested on human MC4R (Homo sapiens).
Marked response: 9.89
